Please respond with reported melting point for every item in the list.

Use the examples below as a reference point.
# lookup: melting point of CC1NNS(=O)(=O)c2c1ccc(Cl)c2Cl (centres unmarked)
261 to 263 °C

Please give the measured melting point for this compound: CN1Cc2ccccc2S(=O)(=O)N1C
143 to 145 °C

The following compounds each have a reported value; give each one's melting point.
1. CC1NN(C)S(=O)(=O)c2c1ccc(Cl)c2Cl (centres unmarked)
2. CCN1NS(=O)(=O)c2c(ccc(Cl)c2Cl)C1C (centres unmarked)

1: 134 to 135 °C; 2: 172 to 174 °C

----------
Consider the following molecules; for each one, report its melting point.

Which melting point is reported for this molecule? CCN1NC(C)c2ccc(Cl)c(Cl)c2S1(=O)=O (stereo not shown)
135 to 136 °C

melting point for O=S1(=O)NNCc2ccccc21 ?
134 to 136 °C

Can you look up the measured melting point of CN1Cc2ccc(Cl)c(Cl)c2S(=O)(=O)N1 for me?
189 to 190 °C

New cases:
Dear colleague, I am looking for the recorded melting point of the following molecule: CCN1Cc2ccccc2S(=O)(=O)N1
146 to 147 °C

----------
MEASURED ATTRIBUTE: melting point

Examples from the recorded data:
So what's the measured melting point for this one? COc1ccc2c(c1)CNNS2(=O)=O [Example 13]
181 to 182 °C

I would be grateful if you could share the reported melting point for Cc1cc(Cl)c(Cl)c2c1C(C)N(C(C)C)NS2(=O)=O (stereo not shown) [Example 38] .
167 to 168 °C

Which measured melting point value corresponds to CC1NN(C)S(=O)(=O)c2c(Cl)cccc21 (stereo not shown) [Example 23] ?
128 to 130 °C

Can you share its melting point? I mean this compound: CC1NNS(=O)(=O)c2cc(Cl)ccc21 (stereo not shown) [Example 1]
155 to 156 °C

What value of melting point has been recorded for this entry: COc1ccc2c(c1Cl)S(=O)(=O)NNC2 [Example 15]
209 to 210 °C

Any idea what melting point was measured for CC1NNS(=O)(=O)c2ccccc21 (stereo not shown) [Example 8] ?
150 to 152 °C

Now, please, on to the next compound.
# melting point lookup, item CN1Cc2ccc(Cl)cc2S(=O)(=O)N1 [Example 37]
188 to 189 °C

Data provenance is patent US20100190778A1.
